protocol: DRUGMATRIX: Potassium Channel [KATP] radioligand binding (ligand: [3H] Glyburide)
Assay type: cell membranes, Membrane
test-settings: hit-t15; Not Active = under 50% inhibition at 10 µM
measurement-kind: IC50

Use the examples below as a reference point.
# molecule, IC50
rows = [
    ("C[C@]12CCC(=O)C=C1CC[C@@H]1[C@@H]2C(=O)C[C@@]2(C)[C@H]1CC[C@]2(O)C(=O)CO [CORTISONE]", "Not Active"),
    ("C/C=C1\\[C@H]2C=C(C)C[C@]1(N)c1ccc(=O)[nH]c1C2 [HUPERZINE A]", "Not Active"),
    ("CC(/C=C1\\SC(=S)N(CC(=O)O)C1=O)=C\\c1ccccc1", "Not Active"),
    ("CN(N=O)C(=O)N[C@@H](C=O)[C@@H](O)[C@H](O)[C@H](O)CO [STREPTOZOCIN]", "Not Active"),
    ("CNCCC=C1c2ccccc2CCc2ccccc21 [NORTRIPTYLINE]", "Not Active"),
]

stdin: Item under review: CCC1(c2ccccc2)C(=O)NCNC1=O [PRIMIDONE] . Reported IC50?
stdout: Not Active

stdin: Fill in the blank: the reported IC50 of CCCCOC(=O)c1ccc(N)cc1 [BUTAMBEN] is ____.
stdout: Not Active

stdin: // IC50 lookup, key: CCc1ccc(C(=O)C(C)CN2CCCCC2)cc1 (centres undefined) [EPERISONE]
stdout: Not Active

stdin: Value lookup for IC50; key = NC(=O)c1ncn([C@@H]2O[C@H](CO)[C@@H](O)[C@H]2O)n1 [RIBAVIRIN]
stdout: Not Active

* * *

system-under-test: D(3) dopamine receptor (Homo sapiens, UniProt P35462)
Sequence (P35462 whole entry): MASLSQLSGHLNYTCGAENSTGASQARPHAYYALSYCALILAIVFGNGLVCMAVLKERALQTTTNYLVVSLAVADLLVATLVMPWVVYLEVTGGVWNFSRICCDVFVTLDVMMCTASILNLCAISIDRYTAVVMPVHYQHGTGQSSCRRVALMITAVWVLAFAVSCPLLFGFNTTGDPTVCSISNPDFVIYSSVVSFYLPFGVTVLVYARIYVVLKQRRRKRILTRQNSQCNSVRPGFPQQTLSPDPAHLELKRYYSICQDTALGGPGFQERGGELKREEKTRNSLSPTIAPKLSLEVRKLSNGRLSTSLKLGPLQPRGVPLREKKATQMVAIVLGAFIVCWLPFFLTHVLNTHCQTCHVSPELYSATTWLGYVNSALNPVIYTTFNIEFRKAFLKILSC
protocol: DRUGMATRIX: Dopamine D3 radioligand binding (ligand: [3H] Spiperone)
Type: cell membranes, CHO, Membrane
test-settings: read-out: Ki
Each entry below carries its reported pKi.
In plain terms, pKi is the concentration in mol/L turned into minus its base-10 logarithm.

In the examples that follow, each entry is paired with its recorded pKi.
# smiles-record, pKi
measured = [
    ("CNCCC=C1c2ccccc2CCc2ccccc21", 7.21),
    ("Clc1ccccc1C(c1ccccc1)(c1ccccc1)n1ccnc1", 6.05),
    ("CN1C[C@H](C(=O)N[C@]2(C)O[C@@]3(O)[C@@H]4CCCN4C(=O)[C@H](Cc4ccccc4)N3C2=O)C=C2c3cccc4[nH]cc(c34)C[C@H]21", 8.83),
    ("CN(C)CCCN1c2ccccc2CCc2ccc(Cl)cc21", 7.33),
]

Could you now consider this next compound?
stdin: Give the measured pKi of `Oc1c(Cl)cc(Cl)cc1Sc1cc(Cl)cc(Cl)c1O` .
stdout: 5.84

* * *

system-under-test: Epidermal growth factor receptor (Homo sapiens)
Sequence (P00533 whole entry): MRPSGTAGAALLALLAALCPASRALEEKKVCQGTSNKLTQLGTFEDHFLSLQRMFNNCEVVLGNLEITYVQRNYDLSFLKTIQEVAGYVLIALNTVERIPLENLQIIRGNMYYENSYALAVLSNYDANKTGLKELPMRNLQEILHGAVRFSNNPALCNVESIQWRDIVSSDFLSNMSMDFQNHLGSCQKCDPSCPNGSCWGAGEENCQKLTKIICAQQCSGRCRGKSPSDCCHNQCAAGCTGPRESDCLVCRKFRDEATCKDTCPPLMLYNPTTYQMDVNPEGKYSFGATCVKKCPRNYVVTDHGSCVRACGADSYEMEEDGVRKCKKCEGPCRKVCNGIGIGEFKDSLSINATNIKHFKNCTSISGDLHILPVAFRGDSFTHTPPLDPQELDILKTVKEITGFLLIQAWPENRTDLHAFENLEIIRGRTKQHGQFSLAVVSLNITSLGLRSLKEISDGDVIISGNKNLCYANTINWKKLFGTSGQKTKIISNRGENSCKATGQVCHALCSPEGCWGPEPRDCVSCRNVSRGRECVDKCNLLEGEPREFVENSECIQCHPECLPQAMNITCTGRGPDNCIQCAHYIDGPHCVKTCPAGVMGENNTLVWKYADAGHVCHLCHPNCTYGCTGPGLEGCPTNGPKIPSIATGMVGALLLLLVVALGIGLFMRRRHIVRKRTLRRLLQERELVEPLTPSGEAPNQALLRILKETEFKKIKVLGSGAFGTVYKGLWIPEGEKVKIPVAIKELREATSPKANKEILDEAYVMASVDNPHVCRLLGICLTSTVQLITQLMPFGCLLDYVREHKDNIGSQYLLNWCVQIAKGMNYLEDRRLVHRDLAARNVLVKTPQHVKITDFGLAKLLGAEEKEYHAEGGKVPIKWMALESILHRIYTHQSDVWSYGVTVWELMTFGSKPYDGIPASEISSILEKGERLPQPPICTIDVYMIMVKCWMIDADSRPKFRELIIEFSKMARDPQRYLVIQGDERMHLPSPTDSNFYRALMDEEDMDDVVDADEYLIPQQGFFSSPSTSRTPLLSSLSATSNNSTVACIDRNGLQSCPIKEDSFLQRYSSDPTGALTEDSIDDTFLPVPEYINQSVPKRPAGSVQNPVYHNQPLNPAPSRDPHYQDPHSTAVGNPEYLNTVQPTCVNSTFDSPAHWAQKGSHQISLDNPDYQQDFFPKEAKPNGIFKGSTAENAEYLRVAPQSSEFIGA
protocol: DRUGMATRIX: Protein Tyrosine Kinase, EGF Receptor enzyme inhibition (substrate: Poly(Glu:Tyr))
Type: cell-based, Insect cells
test-settings: insect cells; Not Active = under 50% inhibition at 10 µM
measurement-kind: IC50

# example entries with known answers
# compound, system-under-test, result
rows = [
    ("CNCCC=C1c2ccccc2CCc2ccccc21", "Epidermal growth factor receptor (Homo sapiens)", "Not Active"),
    ("c1ccc2[nH]c(-c3cscn3)nc2c1", "Epidermal growth factor receptor (Homo sapiens)", "Not Active"),
    ("CC(C)(C)NCC(O)c1ccc(O)c(CO)c1 (stereo not given)", "Epidermal growth factor receptor (Homo sapiens)", "Not Active"),
    ("CC(CCc1ccccc1)NCC(O)c1ccc(O)c(C(N)=O)c1 (stereo not given)", "Epidermal growth factor receptor (Homo sapiens)", "Not Active"),
]

stdin: # IC50 lookup, item `C[C@]12CCC(=O)C=C1CC[C@@H]1[C@@H]2C(=O)C[C@@]2(C)[C@H]1CC[C@]2(O)C(=O)CO`
stdout: Not Active

* * *

Measured IC50 on Androgen receptor (Rattus norvegicus, UniProt P15207) follows.
Sequence (P15207 whole entry S389L): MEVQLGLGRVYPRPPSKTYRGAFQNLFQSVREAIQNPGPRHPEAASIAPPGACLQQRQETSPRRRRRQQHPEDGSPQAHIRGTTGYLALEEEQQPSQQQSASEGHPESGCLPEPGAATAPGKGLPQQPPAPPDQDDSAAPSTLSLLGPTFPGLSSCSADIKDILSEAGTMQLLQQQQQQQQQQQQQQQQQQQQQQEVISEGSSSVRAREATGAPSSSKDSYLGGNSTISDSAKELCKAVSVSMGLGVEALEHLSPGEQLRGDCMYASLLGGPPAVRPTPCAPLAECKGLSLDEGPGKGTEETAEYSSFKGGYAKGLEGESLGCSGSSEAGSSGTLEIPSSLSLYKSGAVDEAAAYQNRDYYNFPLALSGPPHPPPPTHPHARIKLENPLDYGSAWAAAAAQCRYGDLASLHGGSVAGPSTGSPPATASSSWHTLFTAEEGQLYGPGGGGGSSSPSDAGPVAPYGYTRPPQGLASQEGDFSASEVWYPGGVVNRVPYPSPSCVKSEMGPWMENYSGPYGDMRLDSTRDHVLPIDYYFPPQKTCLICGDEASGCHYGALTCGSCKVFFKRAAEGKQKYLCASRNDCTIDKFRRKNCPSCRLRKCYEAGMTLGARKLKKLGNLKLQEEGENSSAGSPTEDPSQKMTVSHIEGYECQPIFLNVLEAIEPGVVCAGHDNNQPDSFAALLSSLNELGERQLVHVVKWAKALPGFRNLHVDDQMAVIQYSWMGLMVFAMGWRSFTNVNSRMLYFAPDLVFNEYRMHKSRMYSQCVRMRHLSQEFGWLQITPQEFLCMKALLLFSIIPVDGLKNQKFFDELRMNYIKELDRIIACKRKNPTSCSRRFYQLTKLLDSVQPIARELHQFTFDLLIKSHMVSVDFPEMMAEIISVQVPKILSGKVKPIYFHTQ

Please review the following examples before continuing.
# compound, IC50
data = [
    ("N#C[C@H](O[C@@H]1O[C@H](CO[C@@H]2O[C@H](CO)[C@@H](O)[C@H](O)[C@H]2O)[C@@H](O)[C@H](O)[C@H]1O)c1ccccc1", "Not Active"),
    ("CN1CCN2c3ccccc3Cc3ccccc3C2C1 (centres undefined)", "Not Active"),
    ("O=C1c2c(O)ccc(O)c2C(=O)c2c(NCCNCCO)ccc(NCCNCCO)c21", "Not Active"),
    ("Brc1ccccc1", "Not Active"),
    ("c1ccc2[nH]c(-c3cscn3)nc2c1", "Not Active"),
]

stdin: So what's the measured IC50 for this one? `COc1ccc2c(c1)c(CC(=O)OCC(=O)O)c(C)n2C(=O)c1ccc(Cl)cc1`
stdout: Not Active

stdin: // returns reported IC50 for input `CC1(C)S[C@@H]2[C@H](NC(=O)[C@H](N)c3ccc(O)cc3)C(=O)N2[C@H]1C(=O)O`
stdout: Not Active

stdin: I would be grateful if you could share the reported IC50 for `O=c1cc(-c2ccccc2)oc2c1ccc1ccccc12` .
stdout: Not Active

stdin: May I ask what IC50 has been recorded for `CN(N=O)C(=O)N[C@@H](C=O)[C@@H](O)[C@H](O)[C@H](O)CO` ?
stdout: Not Active

* * *

protocol: DRUGMATRIX: Purinergic P2X radioligand binding (ligand: [3H] alpha, beta-Methylene-ATP)
Assay type: cell membranes, Oryctolagus cuniculus, New Zealand albino, Urinary bladder, Membrane
test-settings: Not Active = under 50% inhibition at 10 µM
measurement-kind: IC50

# compound, IC50
measured = [
    ("CC(=O)CCCCn1c(=O)c2c(ncn2C)n(C)c1=O", "Not Active"),
    ("Cn1cnc([N+](=O)[O-])c1Sc1ncnc2nc[nH]c12", "Not Active"),
    ("Oc1c(Cl)cc(Cl)cc1Sc1cc(Cl)cc(Cl)c1O", "Not Active"),
    ("CC(C)(S)[C@@H](N)C(=O)O", "Not Active"),
    ("Fc1ccc([C@@H]2CCNC[C@H]2COc2ccc3c(c2)OCO3)cc1", "Not Active"),
]

stdin: Which measured IC50 value corresponds to CC(=O)OCC(=O)[C@@]1(OC(C)=O)[C@@H](C)C[C@H]2[C@@H]3C[C@H](F)C4=CC(=O)C=C[C@]4(C)[C@@]3(F)[C@@H](O)C[C@@]21C [DIFLORASONE DIACETATE] ?
stdout: Not Active

stdin: Please look up its IC50: `NCC(=O)O`
stdout: Not Active

stdin: Entry `CCOC(=O)c1ccc(N)cc1` : reported IC50 = ?
stdout: Not Active

stdin: Consider the compound `CCOC(=O)[C@H](CCc1ccccc1)N[C@@H](C)C(=O)N1[C@H](C(=O)O)C[C@@H]2CCC[C@@H]21` and give its measured IC50.
stdout: Not Active

stdin: Need IC50 of `O=[N+]([O-])c1cc([As](=O)(O)O)ccc1O` , thanks.
stdout: Not Active

stdin: Which value of IC50 has been reported for CC(C)(C)NCC(O)c1cc(O)cc(O)c1 (stereo not drawn) in the records?
stdout: Not Active

stdin: What measured IC50 goes with `COC(=O)c1ccc(O)cc1` ?
stdout: Not Active

* * *

system-under-test: UniProt O76074
protocol: DRUGMATRIX: Phosphodiesterase PDE5 enzyme inhibition (substrate: [3H]cGMP + cGMP)
Format: tissue-based, Platelet
test-settings: platelet; Not Active = under 50% inhibition at 10 µM
measurement-kind: IC50

# compound, measurement-kind, result
records = [
    ("C=C1C(=O)O[C@@H]2C3O[C@]3(C)CC/C=C(\\C)CC[C@@H]12 (stereo not given in full)", "IC50", "Not Active"),
    ("NC(=O)c1ncn([C@@H]2O[C@H](CO)[C@@H](O)[C@H]2O)n1", "IC50", "Not Active"),
    ("NCCCC[C@H](N[C@@H](CCc1ccccc1)C(=O)O)C(=O)N1CCC[C@H]1C(=O)O [LISINOPRIL ANHYDROUS]", "IC50", "Not Active"),
    ("CC(=O)CCCCn1c(=O)c2c(ncn2C)n(C)c1=O", "IC50", "Not Active"),
    ("CCOC(=O)OC(C)OC1=C(C(=O)Nc2ccccn2)N(C)S(=O)(=O)c2ccccc21 (stereo not given)", "IC50", "Not Active"),
]

stdin: // query IC50 value for entry `CN[C@@H]1[C@@H](O)[C@@H](O[C@@H]2[C@@H](O)[C@H](O[C@H]3OC(CN)=CC[C@H]3N)[C@@H](N)C[C@H]2N)OC[C@]1(C)O`
stdout: Not Active

stdin: What measured IC50 goes with `Cn1cnc([N+](=O)[O-])c1Sc1ncnc2nc[nH]c12` ?
stdout: Not Active

stdin: // IC50 lookup, key: CC(=O)OCC(=O)[C@@]1(OC(C)=O)[C@@H](C)C[C@H]2[C@@H]3C[C@H](F)C4=CC(=O)C=C[C@]4(C)[C@@]3(F)[C@@H](O)C[C@@]21C [DIFLORASONE DIACETATE]
stdout: Not Active

stdin: Quick one: IC50 for `CC(C)[C@H](N)C(=O)OCCOCn1cnc2c(=O)nc(N)[nH]c21` ?
stdout: Not Active

stdin: IC50 lookup needed for `Cc1cc(NS(=O)(=O)c2ccc(N)cc2)no1` , thanks.
stdout: Not Active
